# SUBJECT_OF_TEST: base-paired RNA that does not contain internal loops
# PROTOCOL_DETAILS: Microscale thermophoresis (MST) affinity for base pair control RNA
QUANTITY: Kd

Challenge: Look up and report Kd, with base-paired RNA that does not contain internal loops as system, for Cc1ccc2nc(Nc3ccc4nc(C)sc4c3)nc(NCCCO)c2c1
Response given: > 20 µM

---

# Tested on: DM2 patient-derived fibroblasts
# PROTOCOL_DETAILS: Cell viability by CellTiter-Glo
# Format: cell-based
# MEASUREMENT_CONTEXT: at 5 μM
QUANTITY: toxicity in DM2 patient-derived fibroblasts

- Cc1ccc2nc(Nc3ccc4nc(NC5CCN(Cc6ccccc6)CC5)sc4c3)nc(NCCCO)c2c1 [Compound 71]: significant toxicity
- Cc1ccc2nc(Nc3ccc4nc(N5CCN(C)CC5)sc4c3)nc(NCCCO)c2c1 [Compound 82]: significant toxicity
- Cc1ccc2nc(Nc3ccc4nc(NCCN5CCOCC5)sc4c3)nc(NCCCO)c2c1 [Compound 74]: significant toxicity
